Target sequence: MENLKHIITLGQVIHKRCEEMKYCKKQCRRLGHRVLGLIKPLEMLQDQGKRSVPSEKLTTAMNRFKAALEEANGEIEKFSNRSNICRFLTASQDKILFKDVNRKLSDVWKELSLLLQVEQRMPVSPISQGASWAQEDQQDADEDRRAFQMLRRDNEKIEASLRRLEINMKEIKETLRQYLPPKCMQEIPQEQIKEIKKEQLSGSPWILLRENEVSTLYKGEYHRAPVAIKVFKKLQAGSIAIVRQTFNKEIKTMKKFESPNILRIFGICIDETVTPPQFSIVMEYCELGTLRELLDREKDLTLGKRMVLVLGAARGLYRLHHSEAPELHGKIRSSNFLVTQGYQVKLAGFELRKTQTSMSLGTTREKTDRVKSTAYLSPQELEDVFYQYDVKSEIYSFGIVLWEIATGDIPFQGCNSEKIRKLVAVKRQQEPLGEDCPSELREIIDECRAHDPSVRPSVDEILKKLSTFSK
pKd: −log10 of the molar value.
assay_readout: pKd

INSERT INTO assay_data (molecule, numeric_value) VALUES
  ('Nc1ncc(-c2cnn(C3CCN(CCC4CCN(C(=O)COc5ccc6nnn(C7CCC(=O)NC7=O)c(=O)c6c5)CC4)CC3)c2)nc1C(=O)O[C@@H](C(=O)Nc1ccc(F)cc1)c1ccccc1 (stereo partly shown) [TDH-330]', 9.19),
  ('Nc1ncc(-c2cnn(C3CCN(CCCCCCCCCCNC(=O)C4CN(c5cccc6c5C(=O)N(C5CCC(=O)NC5=O)C6=O)C4)CC3)c2)nc1C(=O)O[C@@H](C(=O)Nc1ccc(F)cc1)c1ccccc1 (stereo partly shown) [TDH-158]', 7.46),
  ('Nc1ncc(-c2cnn(C3CCN(CC4CCN(C(=O)CCc5cccc6c5C(=O)N(C5CCC(=O)NC5=O)C6=O)CC4)CC3)c2)nc1C(=O)O[C@@H](C(=O)Nc1ccc(F)cc1)c1ccccc1 (stereo partly shown) [TDH-336]', 8.85),
  ('Nc1ncc(-c2cnn(C3CCN(C(=O)C4CCN(C(=O)CNc5cccc6c5C(=O)N(C5CCC(=O)NC5=O)C6=O)CC4)CC3)c2)nc1C(=O)OC(C(=O)Nc1ccc(F)cc1)c1ccccc1 (stereo not shown) [TDH-275]', 8.31),
  ('Nc1ncc(-c2cnn([C@@H]3CCN(CCOCCOCCNC(=O)COc4cccc5c4C(=O)N(C4CCC(=O)NC4=O)C5=O)C3)c2)nc1C(=O)OC(C(=O)Nc1ccc(F)cc1)c1ccccc1 (stereo partly shown) [TDH-269]', 8.27),
  ('Nc1ncc(-c2cnn(C3CCN(CCCCCCCCCCNc4cccc5c4C(=O)N(C4CCC(=O)NC4=O)C5=O)CC3)c2)nc1C(=O)O[C@@H](C(=O)Nc1ccc(F)cc1)c1ccccc1 (stereo partly shown) [TDH-095]', 7.59),
  ('Nc1ncc(-c2cnn(C3CCN(CCCCCCNC(=O)COc4ccc5c(c4)C(=O)N(C4CCC(=O)NC4=O)C5=O)CC3)c2)nc1C(=O)O[C@@H](C(=O)Nc1ccc(F)cc1)c1ccccc1 (stereo partly shown) [TDH-165]', 9.05),
  ('Nc1ncc(-c2cnn(C3CCN(C(=O)COCCOCCNC(=O)CNc4ccc5c(c4)C(=O)N(C4CCC(=O)NC4=O)C5=O)CC3)c2)nc1C(=O)O[C@@H](C(=O)Nc1ccc(F)cc1)c1ccccc1 (stereo partly shown) [TDH-191]', 8.31),
  ('Nc1ncc(-c2cnn(C3CCN(CCOCCOCCNC(=O)CNc4ccc5nnn(C6CCC(=O)NC6=O)c(=O)c5c4)CC3)c2)nc1C(=O)O[C@@H](C(=O)Nc1ccc(F)cc1)c1ccccc1 (stereo partly shown) [TDH-174]', 8.66),
  ('Nc1ncc(-c2cnn([C@H]3CCN(CCOCCOCCNC(=O)COc4cccc5c4C(=O)N(C4CCC(=O)NC4=O)C5=O)C3)c2)nc1C(=O)OC(C(=O)Nc1ccc(F)cc1)c1ccccc1 (stereo partly shown) [TDH-265]', 8.36);
